Taken from the supplement of paper PMC10724198.

# Test system: Saccharomyces cerevisiae
# experiment_summary: protein stability index of tFT-peptide fusion (C-terminal peptide) (PSI (0-1 scale)); higher = more stable (slower turnover)
# test_settings: genetic background: wild type; temperature: 30 C
Item-by-item account of protein stability index
measurement_kind: protein stability index

{"residues": "DPISNVDVTKIR", "measurement_kind": "protein stability index", "result": 0.657}
{"residues": "KKRTTKEKKQHK", "measurement_kind": "protein stability index", "result": 0.693}
{"residues": "KKTKKTMIIKTT", "measurement_kind": "protein stability index", "result": 0.463}
{"residues": "VGVAREGQVGAA", "measurement_kind": "protein stability index", "result": 0.694}
{"residues": "PPPPPLPPQLSH", "measurement_kind": "protein stability index", "result": 0.756}
{"residues": "LPAPRFLVPAFL", "measurement_kind": "protein stability index", "result": 0.637}
{"residues": "CCVLGDRCIGSD", "measurement_kind": "protein stability index", "result": 0.678}
{"residues": "LRGDGGLFGDSG", "measurement_kind": "protein stability index", "result": 0.655}
{"residues": "LPPPHPPTPAPP", "measurement_kind": "protein stability index", "result": 0.621}
{"residues": "LGARGAGAPAPG", "measurement_kind": "protein stability index", "result": 0.729}

----------
# Tested on: Saccharomyces cerevisiae
# experiment_summary: protein stability index of tFT-peptide fusion (C-terminal peptide) (PSI (0-1 scale)); higher = more stable (slower turnover)
# test_settings: genetic background: wild type; temperature: 30 C
Please use condition met whenever protein stability index is not below 0.6, and condition not met whenever it is.

{"residues": "PQTPPPLLPPSL", "target_or_test_system": "Saccharomyces cerevisiae", "assigned_label": "condition met"}
{"residues": "PTRRPDLFYYSS", "target_or_test_system": "Saccharomyces cerevisiae", "assigned_label": "condition met"}
{"residues": "SWVSQFLVFWPV", "target_or_test_system": "Saccharomyces cerevisiae", "assigned_label": "condition met"}
{"residues": "VFARKARGFDDV", "target_or_test_system": "Saccharomyces cerevisiae", "assigned_label": "condition met"}
{"residues": "RPSTVPGHGSDT", "target_or_test_system": "Saccharomyces cerevisiae", "assigned_label": "condition met"}
{"residues": "ADLPALGSCGSY", "target_or_test_system": "Saccharomyces cerevisiae", "assigned_label": "condition met"}
{"residues": "CLHLDQAACVGS", "target_or_test_system": "Saccharomyces cerevisiae", "assigned_label": "condition met"}
{"residues": "VYVYTIRVRWSE", "target_or_test_system": "Saccharomyces cerevisiae", "assigned_label": "condition not met"}
{"residues": "GSWLGGRTLAGI", "target_or_test_system": "Saccharomyces cerevisiae", "assigned_label": "condition met"}
{"residues": "LPPPTSFPSFPP", "target_or_test_system": "Saccharomyces cerevisiae", "assigned_label": "condition met"}
{"residues": "GGETGGRWHKKQ", "target_or_test_system": "Saccharomyces cerevisiae", "assigned_label": "condition met"}
{"residues": "DRQMRCVHIHYL", "target_or_test_system": "Saccharomyces cerevisiae", "assigned_label": "condition not met"}
{"residues": "VMVVKSSSNTNI", "target_or_test_system": "Saccharomyces cerevisiae", "assigned_label": "condition met"}
{"residues": "PPPPVPPLYLPP", "target_or_test_system": "Saccharomyces cerevisiae", "assigned_label": "condition met"}
{"residues": "LSFAVFIDFFTA", "target_or_test_system": "Saccharomyces cerevisiae", "assigned_label": "condition not met"}
{"residues": "SPRRFVVVSGQG", "target_or_test_system": "Saccharomyces cerevisiae", "assigned_label": "condition met"}

----------
Item-by-item account of protein stability index
# System: Saccharomyces cerevisiae
# experiment_summary: protein stability index of tFT-peptide fusion (C-terminal peptide) (PSI (0-1 scale)); higher = more stable (slower turnover)
# test_settings: genetic background: wild type; temperature: 30 C
measurement_kind: protein stability index

{"residues": "EKRLQKEIKSIE [IDP1 C-terminal 12 aa]", "measurement_kind": "protein stability index", "number": 0.673}
{"residues": "GTKMEWFFDPLA [IPT1 C-terminal 12 aa]", "measurement_kind": "protein stability index", "number": 0.701}
{"residues": "LILHFVCLHFIN [OST2 C-terminal 12 aa]", "measurement_kind": "protein stability index", "number": 0.184}
{"residues": "LRRIAKKHHKKK [SPB1 C-terminal 12 aa]", "measurement_kind": "protein stability index", "number": 0.722}
{"residues": "EALPPCLQIFRP [YDR354C-A C-terminal 12 aa]", "measurement_kind": "protein stability index", "number": 0.674}
{"residues": "MLQYLVFVYIEK [YCR085W C-terminal 12 aa]", "measurement_kind": "protein stability index", "number": 0.21}

----------
Item-by-item account of protein stability index
# Test system: Saccharomyces cerevisiae
# experiment_summary: protein stability index of tFT-peptide fusion (C-terminal peptide) (PSI (0-1 scale)); higher = more stable (slower turnover)
# test_settings: genetic background: das1 deletion; temperature: 30 C

{"residues": "GRFGVGVVFRLA", "protein stability index": 0.637}
{"residues": "PPPPPPPAPASP", "protein stability index": 0.665}
{"residues": "FFSRSLGAGVAA", "protein stability index": 0.602}
{"residues": "VTWNFIVYVCCF", "protein stability index": 0.209}
{"residues": "GPCRPWIVVYAG", "protein stability index": 0.357}
{"residues": "ETVHVISLIAIG", "protein stability index": 0.33}
{"residues": "AGLLVLISWRLF", "protein stability index": 0.171}
{"residues": "WFIFATFLILVT", "protein stability index": 0.136}
{"residues": "LLLFLHSTLTCR", "protein stability index": 0.408}
{"residues": "GGWSFSSLWKIA", "protein stability index": 0.765}
{"residues": "VFFLSFIFRFFL", "protein stability index": 0.508}
{"residues": "RWCLELLWITSC", "protein stability index": 0.355}
{"residues": "GWMLVVWCGVFG", "protein stability index": 0.216}
{"residues": "MFRSEVSWKLCC", "protein stability index": 0.624}
{"residues": "RHVFLRIKVLNL", "protein stability index": 0.52}
{"residues": "RLDAPGLSRTEN", "protein stability index": 0.647}
{"residues": "GGGEGVVWVRLG", "protein stability index": 0.637}
{"residues": "PRRVTVPGVPPL", "protein stability index": 0.669}
{"residues": "FLFFMGVGVVLY", "protein stability index": 0.314}

----------
# Tested on: Saccharomyces cerevisiae
# experiment_summary: protein stability index of tFT-peptide fusion (C-terminal peptide) (PSI (0-1 scale)); higher = more stable (slower turnover)
# test_settings: genetic background: wild type; temperature: 30 C
Item-by-item account of protein stability index

{"residues": "IDSLIENLRFQI [DBF4 C-terminal 12 aa]", "protein stability index": 0.678}
{"residues": "LYPLFEAVPFRR [YBL096C C-terminal 12 aa]", "protein stability index": 0.734}
{"residues": "LELVLKNKEMEN [RSA3 C-terminal 12 aa]", "protein stability index": 0.706}
{"residues": "SELENKFSNQES [FPY1 C-terminal 12 aa]", "protein stability index": 0.735}
{"residues": "EYTDFMSWMQDN [YER186C C-terminal 12 aa]", "protein stability index": 0.646}
{"residues": "RALVDAIQLRGV [CGI121 C-terminal 12 aa]", "protein stability index": 0.663}

----------
# Test system: Saccharomyces cerevisiae
# experiment_summary: protein stability index of tFT-peptide fusion (C-terminal peptide) (PSI (0-1 scale)); higher = more stable (slower turnover)
# test_settings: genetic background: doa10 deletion; temperature: 30 C
Please use criterion met whenever protein stability index is not below 0.3, and criterion not met whenever it is.

{"residues": "LCLLHCSICISF", "target_or_test_system": "Saccharomyces cerevisiae", "assigned_label": "criterion not met"}
{"residues": "PCNVLWYSLFLF", "target_or_test_system": "Saccharomyces cerevisiae", "assigned_label": "criterion not met"}
{"residues": "CCMLCVVAWSGV", "target_or_test_system": "Saccharomyces cerevisiae", "assigned_label": "criterion not met"}
{"residues": "GGGWCEMLIVVG", "target_or_test_system": "Saccharomyces cerevisiae", "assigned_label": "criterion met"}
{"residues": "SPGGALVFFVLV", "target_or_test_system": "Saccharomyces cerevisiae", "assigned_label": "criterion met"}
{"residues": "VWGLWRLCVWGV", "target_or_test_system": "Saccharomyces cerevisiae", "assigned_label": "criterion not met"}
{"residues": "FDWLFFFVNFVV", "target_or_test_system": "Saccharomyces cerevisiae", "assigned_label": "criterion not met"}
{"residues": "VFRECSFFLVCC", "target_or_test_system": "Saccharomyces cerevisiae", "assigned_label": "criterion not met"}
{"residues": "HMVSWTVVRSLM", "target_or_test_system": "Saccharomyces cerevisiae", "assigned_label": "criterion not met"}
{"residues": "CLAGALSWLRRG", "target_or_test_system": "Saccharomyces cerevisiae", "assigned_label": "criterion met"}
{"residues": "LLLFLHILRYVF", "target_or_test_system": "Saccharomyces cerevisiae", "assigned_label": "criterion met"}
{"residues": "FVVVCWFWGGGF", "target_or_test_system": "Saccharomyces cerevisiae", "assigned_label": "criterion not met"}
{"residues": "PPRPLHPPCRPP", "target_or_test_system": "Saccharomyces cerevisiae", "assigned_label": "criterion met"}
{"residues": "CFVWFSVVLLFA", "target_or_test_system": "Saccharomyces cerevisiae", "assigned_label": "criterion not met"}
{"residues": "LERLHSVLLLTS", "target_or_test_system": "Saccharomyces cerevisiae", "assigned_label": "criterion not met"}
{"residues": "LPPYPPPVPILI", "target_or_test_system": "Saccharomyces cerevisiae", "assigned_label": "criterion met"}
{"residues": "HLYITGIIRKIT", "target_or_test_system": "Saccharomyces cerevisiae", "assigned_label": "criterion not met"}
{"residues": "NMRYRATIEACA", "target_or_test_system": "Saccharomyces cerevisiae", "assigned_label": "criterion not met"}
{"residues": "DRQMRCVHIHYL", "target_or_test_system": "Saccharomyces cerevisiae", "assigned_label": "criterion not met"}
{"residues": "SLIDPLGNLFNS", "target_or_test_system": "Saccharomyces cerevisiae", "assigned_label": "criterion met"}
{"residues": "WILLVLACFSSG", "target_or_test_system": "Saccharomyces cerevisiae", "assigned_label": "criterion not met"}
{"residues": "DKKPMKKILLCI", "target_or_test_system": "Saccharomyces cerevisiae", "assigned_label": "criterion not met"}
{"residues": "FLFLFLFPFSLI", "target_or_test_system": "Saccharomyces cerevisiae", "assigned_label": "criterion met"}
{"residues": "LVLLRLSSLTIF", "target_or_test_system": "Saccharomyces cerevisiae", "assigned_label": "criterion not met"}
{"residues": "SWGRGADRWRRA", "target_or_test_system": "Saccharomyces cerevisiae", "assigned_label": "criterion not met"}
{"residues": "NYVFRIIIVLDA", "target_or_test_system": "Saccharomyces cerevisiae", "assigned_label": "criterion not met"}
{"residues": "RWRRWCVVLFVV", "target_or_test_system": "Saccharomyces cerevisiae", "assigned_label": "criterion not met"}
{"residues": "GFISKLIIKLAA", "target_or_test_system": "Saccharomyces cerevisiae", "assigned_label": "criterion not met"}
{"residues": "CVVFLWCGGCWV", "target_or_test_system": "Saccharomyces cerevisiae", "assigned_label": "criterion met"}
{"residues": "VVPYPFLTLLNI", "target_or_test_system": "Saccharomyces cerevisiae", "assigned_label": "criterion met"}
{"residues": "KRSPPPATPSSG", "target_or_test_system": "Saccharomyces cerevisiae", "assigned_label": "criterion met"}
{"residues": "SYWNSSPKCGNW", "target_or_test_system": "Saccharomyces cerevisiae", "assigned_label": "criterion met"}
{"residues": "RILFSPSTFYLF", "target_or_test_system": "Saccharomyces cerevisiae", "assigned_label": "criterion not met"}
{"residues": "IYITFQIYVSDM", "target_or_test_system": "Saccharomyces cerevisiae", "assigned_label": "criterion not met"}
{"residues": "CLRFVFWFVCFV", "target_or_test_system": "Saccharomyces cerevisiae", "assigned_label": "criterion not met"}
{"residues": "PIHILTHTYIGR", "target_or_test_system": "Saccharomyces cerevisiae", "assigned_label": "criterion met"}
{"residues": "DRYSFYGYVVVL", "target_or_test_system": "Saccharomyces cerevisiae", "assigned_label": "criterion not met"}
{"residues": "PRRVTVPGVPPL", "target_or_test_system": "Saccharomyces cerevisiae", "assigned_label": "criterion met"}
{"residues": "GGVSPRSSMDLL", "target_or_test_system": "Saccharomyces cerevisiae", "assigned_label": "criterion met"}
{"residues": "RFLACSIRYLVY", "target_or_test_system": "Saccharomyces cerevisiae", "assigned_label": "criterion not met"}
